From: patent US20070072874A1

# Ki listing for each entry below
target: HGFR (c-MET) (Homo sapiens, UniProt P08581); construct: purchased Upstate 14-526; test: HGFR continuous-coupled spectrophotometric assay (Ki and % inhibition); format: biochemical; details: Table 3, column 'Ki(μM) or I(%)': values without % sign; read-out: Ki
Sequence (P08581 25-1390): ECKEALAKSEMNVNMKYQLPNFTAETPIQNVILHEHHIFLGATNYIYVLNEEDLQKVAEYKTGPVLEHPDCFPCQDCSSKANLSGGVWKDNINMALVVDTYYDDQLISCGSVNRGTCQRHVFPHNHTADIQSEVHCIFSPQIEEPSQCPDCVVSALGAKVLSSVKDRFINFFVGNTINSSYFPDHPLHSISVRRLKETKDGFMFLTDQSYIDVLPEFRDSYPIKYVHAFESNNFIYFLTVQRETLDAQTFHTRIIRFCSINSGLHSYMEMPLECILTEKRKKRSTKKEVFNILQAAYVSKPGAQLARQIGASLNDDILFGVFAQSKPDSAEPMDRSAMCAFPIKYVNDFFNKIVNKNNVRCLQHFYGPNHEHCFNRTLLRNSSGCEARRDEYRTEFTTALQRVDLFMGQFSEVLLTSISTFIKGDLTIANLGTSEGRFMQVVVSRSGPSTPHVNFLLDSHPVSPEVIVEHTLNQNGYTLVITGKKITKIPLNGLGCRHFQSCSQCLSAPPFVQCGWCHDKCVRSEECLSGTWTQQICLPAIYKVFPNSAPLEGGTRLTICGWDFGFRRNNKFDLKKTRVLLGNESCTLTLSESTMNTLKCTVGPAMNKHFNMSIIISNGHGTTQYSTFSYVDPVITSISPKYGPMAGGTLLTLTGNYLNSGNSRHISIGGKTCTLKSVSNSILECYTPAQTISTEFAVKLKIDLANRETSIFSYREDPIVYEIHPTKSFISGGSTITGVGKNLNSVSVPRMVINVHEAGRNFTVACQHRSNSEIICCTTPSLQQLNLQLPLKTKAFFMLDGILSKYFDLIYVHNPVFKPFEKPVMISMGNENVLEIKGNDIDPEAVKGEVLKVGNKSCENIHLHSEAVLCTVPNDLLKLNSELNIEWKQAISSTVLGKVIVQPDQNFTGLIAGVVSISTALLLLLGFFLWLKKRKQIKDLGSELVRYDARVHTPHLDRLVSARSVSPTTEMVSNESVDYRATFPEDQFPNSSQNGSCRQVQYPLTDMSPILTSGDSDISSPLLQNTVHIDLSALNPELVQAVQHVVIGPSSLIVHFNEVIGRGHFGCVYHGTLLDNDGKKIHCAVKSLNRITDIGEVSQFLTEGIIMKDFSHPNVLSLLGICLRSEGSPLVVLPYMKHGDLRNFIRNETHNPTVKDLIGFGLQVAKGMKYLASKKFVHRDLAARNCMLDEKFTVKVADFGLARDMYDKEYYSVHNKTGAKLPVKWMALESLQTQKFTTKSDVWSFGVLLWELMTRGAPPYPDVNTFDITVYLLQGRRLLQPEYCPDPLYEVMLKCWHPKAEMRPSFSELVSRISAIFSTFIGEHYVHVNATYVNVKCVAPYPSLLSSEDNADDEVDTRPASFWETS
attribute-measured: Ki

| molecule | reported-result |
| --- | --- |
| CC(Oc1cc(-c2ccc(CN3CCOCC3)cc2)cnc1N)c1c(Cl)ccc(F)c1Cl (stereo not shown) | 0.554 µM |
| CC(Oc1cc(-c2ccc(CN3C[C@@H](C)O[C@@H](C)C3)cc2)cnc1N)c1c(Cl)ccc(F)c1Cl (stereo partly shown) | 0.27 µM |
| CCN1CCN(C(=O)c2ccc(-c3cnc(N)c(OC(C)c4c(Cl)ccc(F)c4Cl)c3)cc2)CC1 (stereo not shown) | 0.0472 µM |
| Nc1ncc(-c2ccc(C(=O)N3CCC(N4CCCC4)CC3)cc2)cc1OCc1ccc(-c2ccccc2)cc1 | 1.53 µM |
